# assaySystem: Full length human recombinant HDAC6 protein (Homo sapiens, UniProt Q9UBN7)
# Sequence (Q9UBN7 whole entry): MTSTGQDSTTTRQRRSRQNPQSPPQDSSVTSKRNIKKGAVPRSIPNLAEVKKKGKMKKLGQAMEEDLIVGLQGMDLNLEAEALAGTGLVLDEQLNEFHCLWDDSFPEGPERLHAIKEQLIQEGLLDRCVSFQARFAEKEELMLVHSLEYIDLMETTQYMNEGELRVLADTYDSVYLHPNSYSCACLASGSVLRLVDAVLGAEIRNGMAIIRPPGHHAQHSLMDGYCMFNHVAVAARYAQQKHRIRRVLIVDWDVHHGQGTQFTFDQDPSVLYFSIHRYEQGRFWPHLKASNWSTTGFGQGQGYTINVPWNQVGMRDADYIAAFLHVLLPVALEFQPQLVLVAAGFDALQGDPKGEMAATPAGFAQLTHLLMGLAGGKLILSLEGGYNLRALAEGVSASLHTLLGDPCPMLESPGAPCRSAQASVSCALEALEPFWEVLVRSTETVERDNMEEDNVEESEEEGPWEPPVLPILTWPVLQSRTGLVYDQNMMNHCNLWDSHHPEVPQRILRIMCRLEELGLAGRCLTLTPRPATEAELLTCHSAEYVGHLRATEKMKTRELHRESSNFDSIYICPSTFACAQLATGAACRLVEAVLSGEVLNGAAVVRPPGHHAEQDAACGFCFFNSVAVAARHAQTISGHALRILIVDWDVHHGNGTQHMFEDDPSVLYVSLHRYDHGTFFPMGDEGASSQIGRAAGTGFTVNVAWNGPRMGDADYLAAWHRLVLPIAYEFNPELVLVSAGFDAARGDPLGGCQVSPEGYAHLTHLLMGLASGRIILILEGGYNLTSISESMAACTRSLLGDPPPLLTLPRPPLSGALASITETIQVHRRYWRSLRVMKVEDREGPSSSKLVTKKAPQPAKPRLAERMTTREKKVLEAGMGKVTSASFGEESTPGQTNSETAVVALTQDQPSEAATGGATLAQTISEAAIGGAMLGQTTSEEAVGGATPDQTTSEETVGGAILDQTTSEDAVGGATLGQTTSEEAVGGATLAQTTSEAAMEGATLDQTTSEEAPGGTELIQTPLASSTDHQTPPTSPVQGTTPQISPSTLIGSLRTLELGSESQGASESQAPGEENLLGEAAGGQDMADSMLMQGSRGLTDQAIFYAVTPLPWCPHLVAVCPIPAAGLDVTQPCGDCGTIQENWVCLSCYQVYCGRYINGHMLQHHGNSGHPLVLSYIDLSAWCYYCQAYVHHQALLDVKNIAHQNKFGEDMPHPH
# experimentDescription: In vitro histone deacetylase assay: enzymatic HDAC6 electrophoretic mobility shift assay
# conditionLabel: 1 nM enzyme, 2 μM peptide substrate RHKK(Ac)-NH2, 25° C., 12 concentrations; read-out: Inhibitory Concentration (IC50) Values against HDAC6, Activity Range
The molecules listed here are annotated with their IC50.

1. C[C@H]1COc2cc(C(=O)NO)ccc2CN1C(=O)CC1CCOCC1 :: 100 to 500 nM
2. C[C@H]1COc2cc(C(=O)NO)ccc2CN1C(=O)CC(C)(C)O :: ≤ 100 nM
3. COC[C@@H]1COc2cc(C(=O)NO)ccc2CN1C(=O)C1CCOCC1 :: > 500 nM
4. CO[C@H]1CC[C@@H](C(=O)N2CCOc3cc(C(=O)NO)ccc3[C@@H]2C)CC1 (single isomer, unassigned) :: ≤ 100 nM
5. CC(C)(C(=O)N1CCOc2cc(C(=O)NO)ccc2C1)c1cccs1 :: ≤ 100 nM
6. COC(C)(C)CC(=O)N1Cc2ccc(C(=O)NO)cc2OC[C@@H]1C :: ≤ 100 nM

Query string: Report measured IC50 on Full length human recombinant HDAC6 protein (Homo sapiens, UniProt Q9UBN7); entry: "C[C@H]1COc2cc(C(=O)NO)ccc2CN1C(=O)[C@H]1CCCOC1"
Result string: ≤ 100 nM
